- assay_comment: Selectivity index, ratio of CC50 for human MRC5 cells to IC50 for plasmodium falciparum FCR3
- Type: toxicity
- condition_set: read-out: Ratio CC50/IC50
assay_readout: selectivity ratio

> print(dat)
                                   compound  operator  endpoint.value
1  C[C@@H]1CC[C@H]2[C@@H](C)C(=O)O[C@@H]3O[C@@]4(C)CC[C@@H]1[C@]32OO4 [ARTEMISININ]         >             961
2  CC1(C)NC(=O)[C@H](CCCCCC(=O)[C@@H](O)CO)NC(=O)[C@H]2CCCN2C(=O)[C@H](Cc2ccccc2)NC1=O         =            16.3
3  CC1(C)NC(=O)[C@H](CCCCC[C@@H](O)[C@@H](O)CO)NC(=O)[C@H]2CCCN2C(=O)[C@H](Cc2ccccc2)NC1=O         =             0.4
